Target or system Falcipain 2 (Plasmodium falciparum, UniProt Q8I6U4): recorded Ki listed per item.
Report the value in nM with no unit label.

query: Need Ki, item CC(C)C[C@@H](NC(=O)c1cc2ccccc2o1)C(=O)N[C@@H]1CCCN(S(=O)(=O)c2cccc[n+]2[O-])CC1=O
result: 5.7

query: And the next one, CC(C)C[C@@H](NC(=O)c1cc2cc(OCCN3CCOCC3)ccc2o1)C(=O)NC1CCCN(C(=O)Cc2cccc(-c3ccccn3)c2)CC1=O (stereo partly drawn) ?
result: 3

query: And the next one, CC(C)C[C@H](NC(=O)c1cc2ccccc2o1)C(=O)N[C@H]1CCCN(S(=O)(=O)c2cn(C)cn2)CC1=O ?
result: 5.3

query: And the next one, CC(C)C[C@H](NC(=O)c1cc2sccc2s1)C(=O)N[C@H]1CCCN(C(=O)Nc2ccccc2F)CC1=O ?
result: 3.1

query: And the next one, CC(C)C[C@H](NC(=O)c1cc2ccccc2s1)C(=O)N[C@H]1C[C@H](C)CN(S(=O)(=O)c2ccccn2)CC1=O ?
result: 4.1

query: And the next one, CC(C)C[C@H](NC(=O)c1cc2sccc2s1)C(=O)N[C@H]1C[C@H](C)CN(S(=O)(=O)c2ccccn2)CC1=O ?
result: 4.1

###

target: Rhodazain (Trypanosoma brucei rhodesiense); assay: Cysteine protease inhibition, progress curve method, rhodazain; assay type: biochemical, Trypanosoma brucei rhodesiensi; settings: Rhodazain Ki (nM), 10 uM Cbz-Leu-Arg-AMC, 100 mM Na acetate pH 5.5, 5 mM cysteine
Sequence (Q95PM0 entry or part of it): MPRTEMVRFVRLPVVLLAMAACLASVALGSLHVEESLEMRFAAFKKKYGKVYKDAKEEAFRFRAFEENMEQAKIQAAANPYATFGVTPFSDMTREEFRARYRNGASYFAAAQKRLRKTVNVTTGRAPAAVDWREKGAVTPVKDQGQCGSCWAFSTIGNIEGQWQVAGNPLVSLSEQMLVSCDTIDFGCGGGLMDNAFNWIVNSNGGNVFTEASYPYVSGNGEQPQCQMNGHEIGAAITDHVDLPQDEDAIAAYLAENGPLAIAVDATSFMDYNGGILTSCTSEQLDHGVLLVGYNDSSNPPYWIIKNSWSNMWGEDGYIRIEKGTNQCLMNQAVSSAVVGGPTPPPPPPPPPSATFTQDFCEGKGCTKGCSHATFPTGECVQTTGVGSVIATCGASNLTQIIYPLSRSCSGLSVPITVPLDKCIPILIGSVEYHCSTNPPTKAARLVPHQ
Hi there, I'd appreciate the recorded Ki for every entry that follows.
Report the value in nM with no unit label.

query: Need Ki, item CC(C)C[C@H](NC(=O)c1cc2ccccc2o1)C(=O)N[C@@H]1CCCN(S(C)(=O)=O)CC1=O
result: 8.5

query: And the next one, COc1ccc2c(C)c(C(=O)N[C@@H](CC(C)C)C(=O)N[C@H]3CCN(S(=O)(=O)c4cccc[n+]4[O-])CCC3=O)oc2c1 ?
result: 4.5

query: And the next one, COc1ccc2oc(C(=O)N[C@@H](CC(C)C)C(=O)N[C@H]3CCCN(S(C)(=O)=O)CC3=O)cc2c1 ?
result: 7.2

query: And the next one, CC(C)C[C@@H](NC(=O)c1cnc2ccccc2c1)C(=O)N[C@@H]1CCCN(S(=O)(=O)c2ccccn2)CC1=O [Example 27] ?
result: 13

query: And the next one, CC(C)C[C@H](NC(=O)c1cc2ccccc2o1)C(=O)N[C@H]1C[C@H](C)CN(S(=O)(=O)c2ccccn2)CC1=O (single isomer, unassigned) [Example 173] ?
result: 2.2

query: And the next one, COc1cccc2cc(C(=O)N[C@H](CC(C)C)C(=O)N[C@H]3CCCN(S(=O)(=O)c4ccccn4)CC3=O)oc12 ?
result: 5.1

query: And the next one, CC(C)C[C@@H](NC(=O)c1ccc2ccccc2c1)C(=O)N[C@@H]1CCCN(S(=O)(=O)c2ccccn2)CC1=O (stereo in doubt) [Example 17] ?
result: 8.3

query: And the next one, COc1cc2cc(C(=O)N[C@@H](CC(C)C)C(=O)NC3CCCN(S(=O)(=O)c4cn(C)cn4)CC3=O)oc2cc1OC (stereo partly drawn) ?
result: 2.2

query: And the next one, CC(C)C[C@@H](NC(=O)c1ccc2ncccc2c1)C(=O)N[C@@H]1CCCN(S(=O)(=O)c2ccccn2)CC1=O (stereo in doubt) [Example 25] ?
result: 8

query: And the next one, CC(C)C[C@@H](NC(=O)c1cc2ccccc2o1)C(=O)N[C@@H]1CCCN(S(=O)(=O)c2cccc[n+]2[O-])CC1=O [Example 49] ?
result: 3.1

query: And the next one, CC(C)C[C@@H](NC(=O)c1ccc2[nH]ccc2c1)C(=O)NC1CCCN(S(=O)(=O)c2cccc[n+]2[O-])CC1=O (single isomer, unassigned) ?
result: 2.7

query: And the next one, CC(C)CC(NC(=O)c1ccc2c(c1)OCCCO2)C(=O)N[C@@H]1CCCN(S(=O)(=O)c2cccc[n+]2[O-])CC1=O (single isomer, unassigned) ?
result: 4.6

Origin of measurements: patent US20030044399A1
